Test system: Staphylococcus aureus 6538P
Experiment: Minimum inhibitory concentration (agar 2-fold dilution)
Format: cell-based
Conditions: S. aureus 6538P, Muller-Hinton agar, 37° C., 20 hours, read-out: Minimum Inhibitory Concentration
Please respond with reported MIC for every item in the list.
Lab book: enter the figure in µg/mL, no units written.

Which MIC is listed for Nc1cc(N)[n+](C/C=C/C2=C(C(=O)[O-])N3C(=O)[C@@H](NC(=O)/C(=N\O[C@H](C(=O)O)c4ccc(O)c(O)c4)c4csc(N)n4)[C@H]3SC2)cn1 ?
0.5

Same question, Nc1cc[n+](C/C=C/C2=C(C(=O)[O-])N3C(=O)[C@@H](NC(=O)/C(=N\O[C@@H](C(=O)O)c4ccc(O)c(O)c4)c4csc(N)n4)[C@H]3SC2)cn1 this time
0.5

Same question, Nc1nc(/C(=N/O[C@@H](C(=O)O)c2ccc(O)c(O)c2)C(=O)N[C@@H]2C(=O)N3C(C(=O)[O-])=C(/C=C/C[n+]4cnc(N)c5c4CCC5)CS[C@H]23)cs1 this time
0.5

----------
Test system: Escherichia coli TEM7 3457E
Assay: Minimum inhibitory concentration (agar 2-fold dilution)
Assay type: cell-based
Details: TEM73457E, 20 h, read-out: Minimum Inhibitory Concentration
Please respond with reported MIC for every item in the list.
Kindly format the answer as number then unit.

Which MIC is listed for Nc1cc(N)[n+](C/C=C/C2=C(C(=O)[O-])N3C(=O)[C@@H](NC(=O)/C(=N\O[C@H](C(=O)O)c4ccc(O)c(O)c4)c4csc(N)n4)[C@H]3SC2)cn1 [Compound I-1a] ?
0.13 µg/mL

Same question, Nc1nc(/C(=N/O[C@H](C(=O)O)c2ccc(O)c(O)c2)C(=O)N[C@@H]2C(=O)N3C(C(=O)[O-])=C(/C=C/C[n+]4cnc(N)c(N)c4N)CS[C@H]23)cs1 [Compound I-5a] this time
0.031 µg/mL

Same question, Nc1cc[n+](C/C=C/C2=C(C(=O)[O-])N3C(=O)[C@@H](NC(=O)/C(=N\O[C@H](C(=O)O)c4ccc(O)c(O)c4)c4csc(N)n4)[C@H]3SC2)cn1 [Compound I-2a] this time
0.031 µg/mL

Same question, Nc1cc(N)[n+](C/C=C/C2=C(C(=O)[O-])N3C(=O)[C@@H](NC(=O)/C(=N\O[C@@H](C(=O)O)c4ccc(O)c(O)c4)c4csc(N)n4)[C@H]3SC2)cn1 [Compound I-1b] this time
0.25 µg/mL

Same question, Cc1c(N)nc[n+](C/C=C/C2=C(C(=O)[O-])N3C(=O)[C@@H](NC(=O)/C(=N\O[C@@H](C(=O)O)c4ccc(O)c(O)c4)c4csc(N)n4)[C@H]3SC2)c1N [Compound I-4b] this time
0.25 µg/mL

Same question, Nc1nc(/C(=N/O[C@H](C(=O)O)c2ccc(O)c(O)c2)C(=O)N[C@@H]2C(=O)N3C(C(=O)[O-])=C(/C=C/C[n+]4cnc(N)c5c4CCC5)CS[C@H]23)cs1 [Compound I-3a] this time
0.13 µg/mL

Same question, Nc1cc[n+](C/C=C/C2=C(C(=O)[O-])N3C(=O)[C@@H](NC(=O)/C(=N\O[C@@H](C(=O)O)c4ccc(O)c(O)c4)c4csc(N)n4)[C@H]3SC2)cn1 [Compound I-2b] this time
0.25 µg/mL

Same question, Nc1nc(/C(=N/O[C@@H](C(=O)O)c2ccc(O)c(O)c2)C(=O)N[C@@H]2C(=O)N3C(C(=O)[O-])=C(/C=C/C[n+]4cnc(N)c(N)c4N)CS[C@H]23)cs1 [Compound I-5b] this time
0.25 µg/mL

Same question, Cc1c(N)nc[n+](C/C=C/C2=C(C(=O)[O-])N3C(=O)[C@@H](NC(=O)/C(=N\O[C@H](C(=O)O)c4ccc(O)c(O)c4)c4csc(N)n4)[C@H]3SC2)c1N [Compound I-4a] this time
0.25 µg/mL

Same question, CC(C)(O/N=C(\C(=O)N[C@@H]1C(=O)N2C(C(=O)[O-])=C(C[n+]3ccccc3)CS[C@H]12)c1csc(N)n1)C(=O)O [CAZ, Ceftazidime, reference compound] this time
16 µg/mL

Same question, Nc1nc(/C(=N/O[C@@H](C(=O)O)c2ccc(O)c(O)c2)C(=O)N[C@@H]2C(=O)N3C(C(=O)[O-])=C(/C=C/C[n+]4cnc(N)c5c4CCC5)CS[C@H]23)cs1 [Compound I-3b] this time
0.5 µg/mL

----------
Please respond with reported MIC for every item in the list.
System: Escherichia coli 3190Y
Test: Minimum inhibitory concentration (agar 2-fold dilution)
Type: cell-based
Details: E. coli 3190Y, Muller-Hinton agar, 37° C., 20 hours, read-out: Minimum Inhibitory Concentration
Lab book: enter the figure in µg/mL, no units written.

Which MIC is listed for Nc1cc(N)[n+](C/C=C/C2=C(C(=O)[O-])N3C(=O)[C@@H](NC(=O)/C(=N\O[C@@H](C(=O)O)c4ccc(O)c(O)c4)c4csc(N)n4)[C@H]3SC2)cn1 ?
0.13

Same question, Nc1nc(/C(=N/O[C@H](C(=O)O)c2ccc(O)c(O)c2)C(=O)N[C@@H]2C(=O)N3C(C(=O)[O-])=C(/C=C/C[n+]4cnc(N)c5c4CCC5)CS[C@H]23)cs1 this time
0.031

Same question, Nc1cc[n+](C/C=C/C2=C(C(=O)[O-])N3C(=O)[C@@H](NC(=O)/C(=N\O[C@@H](C(=O)O)c4ccc(O)c(O)c4)c4csc(N)n4)[C@H]3SC2)cn1 this time
0.13

Same question, Cc1c(N)nc[n+](C/C=C/C2=C(C(=O)[O-])N3C(=O)[C@@H](NC(=O)/C(=N\O[C@@H](C(=O)O)c4ccc(O)c(O)c4)c4csc(N)n4)[C@H]3SC2)c1N this time
0.13

Same question, Nc1nc(/C(=N/O[C@@H](C(=O)O)c2ccc(O)c(O)c2)C(=O)N[C@@H]2C(=O)N3C(C(=O)[O-])=C(/C=C/C[n+]4cnc(N)c(N)c4N)CS[C@H]23)cs1 this time
0.13

----------
System: Enterobacter cloacae IND + VE 1194E
Assay: Minimum inhibitory concentration (agar 2-fold dilution)
Assay type: cell-based
Conditions: E. cloacae IND + VE 1194E, Muller-Hinton agar, 37° C., 20 hours, read-out: Minimum Inhibitory Concentration
MEASURE: MIC (µg/mL)
Lab book: enter the figure in µg/mL, no units written.

Which MIC is listed for Cc1c(N)nc[n+](C/C=C/C2=C(C(=O)[O-])N3C(=O)[C@@H](NC(=O)/C(=N\O[C@@H](C(=O)O)c4ccc(O)c(O)c4)c4csc(N)n4)[C@H]3SC2)c1N ?
8

Same question, Cc1c(N)nc[n+](C/C=C/C2=C(C(=O)[O-])N3C(=O)[C@@H](NC(=O)/C(=N\O[C@H](C(=O)O)c4ccc(O)c(O)c4)c4csc(N)n4)[C@H]3SC2)c1N this time
2

Same question, Nc1cc(N)[n+](C/C=C/C2=C(C(=O)[O-])N3C(=O)[C@@H](NC(=O)/C(=N\O[C@@H](C(=O)O)c4ccc(O)c(O)c4)c4csc(N)n4)[C@H]3SC2)cn1 this time
64

Same question, Nc1nc(/C(=N/O[C@@H](C(=O)O)c2ccc(O)c(O)c2)C(=O)N[C@@H]2C(=O)N3C(C(=O)[O-])=C(/C=C/C[n+]4cnc(N)c(N)c4N)CS[C@H]23)cs1 this time
8

Same question, Nc1cc[n+](C/C=C/C2=C(C(=O)[O-])N3C(=O)[C@@H](NC(=O)/C(=N\O[C@H](C(=O)O)c4ccc(O)c(O)c4)c4csc(N)n4)[C@H]3SC2)cn1 this time
1

Same question, Nc1cc(N)[n+](C/C=C/C2=C(C(=O)[O-])N3C(=O)[C@@H](NC(=O)/C(=N\O[C@H](C(=O)O)c4ccc(O)c(O)c4)c4csc(N)n4)[C@H]3SC2)cn1 this time
4

Same question, Nc1nc(/C(=N/O[C@@H](C(=O)O)c2ccc(O)c(O)c2)C(=O)N[C@@H]2C(=O)N3C(C(=O)[O-])=C(/C=C/C[n+]4cnc(N)c5c4CCC5)CS[C@H]23)cs1 this time
32

----------
A short record of MIC observed with Escherichia coli TEM1 1193E follows.
Lab book: enter the figure in µg/mL, no units written.

Which MIC is listed for Nc1cc[n+](C/C=C/C2=C(C(=O)[O-])N3C(=O)[C@@H](NC(=O)/C(=N\O[C@@H](C(=O)O)c4ccc(O)c(O)c4)c4csc(N)n4)[C@H]3SC2)cn1 [Compound I-2b] ?
0.25

Same question, Nc1nc(/C(=N/O[C@H](C(=O)O)c2ccc(O)c(O)c2)C(=O)N[C@@H]2C(=O)N3C(C(=O)[O-])=C(/C=C/C[n+]4cnc(N)c5c4CCC5)CS[C@H]23)cs1 [Compound I-3a] this time
0.063

Same question, Nc1nc(/C(=N/O[C@H](C(=O)O)c2ccc(O)c(O)c2)C(=O)N[C@@H]2C(=O)N3C(C(=O)[O-])=C(/C=C/C[n+]4cnc(N)c(N)c4N)CS[C@H]23)cs1 [Compound I-5a] this time
0.063
